Data provenance: PubChem BioAssay

Test system: DAF-12 nuclear receptor (Heterodera glycines), GAL4-LBD fusion
assay-notes: H. glycines DAF-12 receptor agonists, confirmation, cell-based, luminescence, HEK293, GAL4-LBD fusion (AID 743050);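 further: 0% = DMSO low control and 100% = 2 mM sodium butyrate high control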
measurement-context: HEK293 GAL4-hgDAF12 luciferase reporter, agonist mode; at 6.8 µM; stronger effect = higher value; percent of butyrate response
Some of the results follow.
// activation lookup, one value per entry
Express your answer in %, writing the number without its unit.

Some solved cases for reference:
Cc1ccnc(NC(=O)CCNS(=O)(=O)c2ccc(C)c(C)c2)c1; 17.9
CC(C)n1c(=O)[nH]c2cc(C(=O)Nc3ccccc3)ccc21; 5.08
CCc1ccc(NC2Nc3cc(C)nn3S2)cc1 (stereo not given); 18.8
O=C(NCCCN1CCOCC1)c1cc(-c2ccccc2F)no1; 11.6
Nc1ccc(C(=O)Nc2ccccc2N)cc1; 85.4
Cn1c(=NC(=O)C2CC2)sc2cc(F)cc(F)c21; 5.29
S=C(c1ccc(-c2ccccc2)o1)N1CCCCC1; 16.1
CN1CCN(c2ccc(NC(=O)c3ccc4c(c3)OCCO4)cc2Cl)CC1; 9.5
Cn1c(NC(=O)c2ccccc2)nc2ccccc21; 19.1
OC(c1ccccc1)c1nc(-c2cnc3ccccc3c2)cs1 (stereo not given); 26.4

Lookup: Dear colleague, I am looking for the recorded activation of the following compound: Oc1cccc2ccc(/C=C/c3ccc(Br)s3)nc12
Found: 15.8

Lookup: Dear colleague, I am looking for the recorded activation of the following compound: O=C(Nc1ccc(Cl)cn1)c1ccc2c(c1)OCCO2
Found: 13.4

Lookup: Dear colleague, I am looking for the recorded activation of the following compound: CC(C)(C)c1ccc(/C=C/C(=O)Nc2ncccn2)cc1
Found: 14.8

---

assay-notes: E. coli viability inhibition, counter-screen for RecBCD inhibitor project, absorbance, high throughput (AID 651983);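 further: E. coli strain V66 grown with compound alone and no phage infection; 0% = bacteria with DMSO vehicle only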
measurement-context: absorbance (OD) growth, at 11.9 µM, stronger effect = higher value
The other results are listed elsewhere or left out.
// inhibition lookup, one value per entry
Express your answer in %, writing the number without its unit.

Some solved cases for reference:
O=C(NNC(=O)c1ccccc1O)c1ccccc1O; 26.4
COc1ccc(OC)c(Cc2cnc3nc(N)nc(N)c3c2C)c1; 79.2
Cc1cccc(NC(=O)c2ccc([N+](=O)[O-])o2)c1; 8.19
O=C(NN=Cc1ccccc1O)NN=Cc1ccccc1O; 2.69

Lookup: Dear colleague, I am looking for the recorded inhibition of the following compound: CC(=O)NC(c1cccs1)c1cc(Br)c2cccnc2c1O (stereo not given)
Found: 16.4

---

// inhibition lookup, one value per entry
Test system: transactivating tegument protein VP16 (Human herpesvirus 1)
assay-notes: VP16 transactivation reporter inhibitors, counter-screen for SRC2 inhibitor project, cell-based, luminescence, single concentration (AID 652007)
measurement-context: cell-based VP16 transactivation luciferase reporter, at 8.9 µM, stronger effect = higher value
Express your answer in %, writing the number without its unit.

Cc1cc(Sc2nnc(/N=C/N(C)C)s2)c2ccccc2n1; -8.53

Lookup: Dear colleague, I am looking for the recorded inhibition of the following molecule: N#Cc1c(NC(=O)CCCC(=O)O)sc2c1CCCCC2
Found: -8.88

Lookup: Dear colleague, I am looking for the recorded inhibition of the following molecule: O=C(Nc1ccc2c(c1)OCCO2)C(c1cc2ccccc2o1)N1CCN(c2ccc(F)cc2)CC1 (configuration not stated)
Found: -43.1

Lookup: Dear colleague, I am looking for the recorded inhibition of the following molecule: COc1ccc(C(=O)NCCNc2nc3cc(C)cc(C)c3cc2C#N)c(OC)c1
Found: 3.31
